The following sequences are listed with their measured switch fluorescence ratio values.
# System: ATP;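 also: ATP exposure 15 min at 22 °C before imaging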
# experimental.protocol: switch fluorescence ratio, 500 uM ATP over buffer (Cy3 cluster intensity, sum of 5 cycles each) (fold (ratio)); higher = stronger signal-on switching upon ATP binding; sequences stand for … in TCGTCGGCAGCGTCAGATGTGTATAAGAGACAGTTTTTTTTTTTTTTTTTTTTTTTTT…TC
# condition.context: aptamer strand: ATP DNA aptamer (quencher-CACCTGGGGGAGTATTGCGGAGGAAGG + anchor), 100 nM annealed; ATP concentration: 500 uM
Just the number, please, no unit attached.

> print(dat)
   construct.sequence  observed
1          TACGTATTTT      1.02

Q: Give the measured switch fluorescence ratio for AAGGACATTA
Ans: 1.04

###

# Test system: ATP;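 also: ATP exposure 15 min at 22 °C before imaging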
# experimental.protocol: switch fluorescence ratio, 500 uM ATP over buffer (Cy3 cluster intensity, sum of 5 cycles each) (fold (ratio)); higher = stronger signal-on switching upon ATP binding; sequences stand for … in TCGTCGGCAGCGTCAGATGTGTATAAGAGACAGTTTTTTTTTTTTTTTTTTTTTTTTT…TC
# condition.context: aptamer strand: ATP DNA aptamer (quencher-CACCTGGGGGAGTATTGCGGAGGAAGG + anchor), 100 nM annealed; ATP concentration: 500 uM
The following sequences are listed with their measured switch fluorescence ratio values.
Just the number, please, no unit attached.

// solved cases for switch fluorescence ratio follow
> print(dat)
   construct.sequence  observed
1          GAGTGCGGCT      1.07
2          AGGTTGGCAA      1.07
3          GCCCGCTTCG      1.03

Q: Specify the recorded switch fluorescence ratio for TTACGGCCGA , system: ATP.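 Also: ATP exposure 15 min at 22 °C before imaging.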
Ans: 1.02

Q: Specify the recorded switch fluorescence ratio for TTCGTTTATT , system: ATP.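 Also: ATP exposure 15 min at 22 °C before imaging.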
Ans: 1.01

###

# System: ATP;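 also: ATP exposure 15 min at 22 °C before imaging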
# experimental.protocol: switch fluorescence ratio, 500 uM ATP over buffer (Cy3 cluster intensity, sum of 5 cycles each) (fold (ratio)); higher = stronger signal-on switching upon ATP binding; sequences stand for … in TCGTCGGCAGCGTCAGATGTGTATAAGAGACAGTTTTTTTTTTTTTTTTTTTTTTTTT…TC
# condition.context: aptamer strand: ATP DNA aptamer (quencher-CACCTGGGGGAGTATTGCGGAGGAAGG + anchor), 100 nM annealed; ATP concentration: 500 uM
The following sequences are listed with their measured switch fluorescence ratio values.

// solved cases for switch fluorescence ratio follow
> print(dat)
   construct.sequence  assayed.target  observed
1          AGGGCAGCTT             ATP      1.06
2          CGGCTTAGTA             ATP     0.988
3          TTACAAGACG             ATP      1.03
4          CTCCAGACGA             ATP      1.47
5          GATTGGTAGG             ATP     0.981
6          CCTTATTTTG             ATP      1.05
7          GCATGAGAGG             ATP     0.987
8          ATCCTACAGC             ATP       1.1

Q: Give the measured switch fluorescence ratio for CTGGTATACG
Ans: 1.06

Q: Give the measured switch fluorescence ratio for GGGTCAGGGC
Ans: 1.06

The measurements presented in this section are drawn from the supplement of paper PMC10126150.
